# testSystem: human recombinant aldose reductase (Homo sapiens)
# experiment: Aldose reductase inhibition assay (spectrophotometric, glyceraldehyde substrate)
# conditionSummary: recombinant enzyme, DL-glyceraldehyde substrate, pH 6.2, 37°C
Counter-ions that a name gives are not always drawn.
measurementKind: IC50 (µM)
Report the figure in µM without appending any unit label.

Fill in the blank: the reported IC50 of COC(=O)CCc1ccc(OCC(O)CNC(C)C)cc1 (stereo not shown) [Esmolol hydrochloride] is ____.
150

* * *

# experiment: MTT cytotoxicity in Ea.hy926
# Format: cell-based, human
# conditionSummary: human, Ea.hy926 cells; Ea.hy926, 24 h, 50 μM; read-out: % Cytotoxicity w.r.t. untreated cells
Structures can show the parent of a compound that is named as a salt.
measurementKind: cytotoxicity at 24 h, 50 µM (%)
# value in %; strip the unit string

Name the recorded cytotoxicity at 24 h, 50 µM for COC(=O)CCc1ccc(OCC(O)CNC(C)C)cc1 (stereo not shown) [Esmolol hydrochloride] .
3.85

* * *

# experiment: MTT cytotoxicity in Ea.hy926
# Assay type: cell-based, human
# conditionSummary: human, Ea.hy926 cells; Ea.hy926, 24 h, 10 μM; read-out: % Cytotoxicity w.r.t. untreated cells
Counter-ions that a name gives are not always drawn.
measurementKind: cytotoxicity at 24 h, 10 µM (%)
Unit % implied. Number only.

Which value of cytotoxicity at 24 h, 10 µM has been reported for COC(=O)CCc1ccc(OCC(O)CNC(C)C)cc1 (stereo not shown) [Esmolol hydrochloride] in the records?
13.8

* * *

# experiment: MTT cytotoxicity in HFF-1
# Format: cell-based, human
# conditionSummary: human, HFF-1 cells; HFF-1, 48 h, 10 μM; read-out: % Cytotoxicity w.r.t. untreated cells
Where a name gives a salt, the structure may show the parent alone.
measurementKind: cytotoxicity at 48 h, 10 µM

Bench note: what cytotoxicity at 48 h, 10 µM did COC(=O)CCc1ccc(OCC(O)CNC(C)C)cc1 (stereo not shown) [Esmolol hydrochloride] show?
-17.1%

* * *

# experiment: MTT cytotoxicity in HFF-1
# Assay type: cell-based, human
# conditionSummary: human, HFF-1 cells; HFF-1, 48 h, 0.01 μM; read-out: % Cytotoxicity w.r.t. untreated cells
Counter-ions that a name gives are not always drawn.
measurementKind: cytotoxicity at 48 h, 0.01 µM (%)
Value expressed in %; do not type the unit.

Give the measured cytotoxicity at 48 h, 0.01 µM of COC(=O)CCc1ccc(OCC(O)CNC(C)C)cc1 (stereo not shown) [Esmolol hydrochloride] .
-21.6

* * *

# experiment: MTT cytotoxicity in HaCaT
# Format: cell-based, human
# conditionSummary: human, HaCaT cells, 48 h, 100 μM, read-out: % Cytotoxicity w.r.t. untreated cells
Counter-ions that a name gives are not always drawn.
measurementKind: cytotoxicity at 48 h, 100 µM (%)
Please give a number only; it is taken to be in %.

Give its cytotoxicity at 48 h, 100 µM value. Item: COC(=O)CCc1ccc(OCC(O)CNC(C)C)cc1 (stereo not shown) [Esmolol hydrochloride]
-18.5

* * *

# experiment: MTT cytotoxicity in Ea.hy926
# Type: cell-based, human
# conditionSummary: human, Ea.hy926 cells; Ea.hy926, 24 h, 1 μM; read-out: % Cytotoxicity w.r.t. untreated cells
Structures can show the parent of a compound that is named as a salt.
measurementKind: cytotoxicity at 24 h, 1 µM (%)
Form entry: value (%) — number only.

Quick one: cytotoxicity at 24 h, 1 µM for COC(=O)CCc1ccc(OCC(O)CNC(C)C)cc1 (stereo not shown) [Esmolol hydrochloride] ?
11.4
